- procedure-summary: protein stability index of a GFP-peptide fusion (yeast GPS) (PSI 1-4); higher = more stable; sorted into four equal gates, so the index is relative within each strain
- setup-conditions: san1∆
readout-type: protein stability index
Response field accepts a number only; no unit should be typed.

sequence-content	assay-result
LYRLSTPLRDEVTDKNY [PRP8]	3.02

Moving on to the next sequence.
Q. Which protein stability index reading was recorded for the sequence NVRMDTMANILYYPQKP [RPB2] ?
A. 3.12

###

- procedure-summary: protein stability index of a GFP-peptide fusion (yeast GPS) (PSI 1-4); higher = more stable; sorted into four equal gates, so the index is relative within each strain
- setup-conditions: san1∆
Short version: protein stability index at least 3 is Met, less is Not met.

Past entries and their recorded results:
sequence-content	classification
RNEKIAVHVTVRGPKAE [RPL11A]	Not met
TSQKMKKMVYVLDSMTK [SRP54]	Met
ANNIVNIVSDAGANDTS [GRR1]	Met
NDNNLKKLESQESLVKL [RPN5]	Not met
DKLLKRLKEKGSRVLIF [ISW2]	Not met
RQFLKANKTNLIESLNT [YML103C/NUP188]	Not met
LADYIVEVLLVNYNSDM [NUT1]	Not met
KQEQEEKIKSKKINRRN [YCG1]	Not met

Q. protein stability index >= 3 for VAKVDEEGRAIPGEYIT [RPS21B] ?
A. Not met

Q. protein stability index >= 3 for KSNGLAPEIPEDLYYLI [RPS13] ?
A. Not met
